targetOfAssay: PARP (Mus musculus)
Construct: endogenous in cells
Sequence (P11103 whole entry): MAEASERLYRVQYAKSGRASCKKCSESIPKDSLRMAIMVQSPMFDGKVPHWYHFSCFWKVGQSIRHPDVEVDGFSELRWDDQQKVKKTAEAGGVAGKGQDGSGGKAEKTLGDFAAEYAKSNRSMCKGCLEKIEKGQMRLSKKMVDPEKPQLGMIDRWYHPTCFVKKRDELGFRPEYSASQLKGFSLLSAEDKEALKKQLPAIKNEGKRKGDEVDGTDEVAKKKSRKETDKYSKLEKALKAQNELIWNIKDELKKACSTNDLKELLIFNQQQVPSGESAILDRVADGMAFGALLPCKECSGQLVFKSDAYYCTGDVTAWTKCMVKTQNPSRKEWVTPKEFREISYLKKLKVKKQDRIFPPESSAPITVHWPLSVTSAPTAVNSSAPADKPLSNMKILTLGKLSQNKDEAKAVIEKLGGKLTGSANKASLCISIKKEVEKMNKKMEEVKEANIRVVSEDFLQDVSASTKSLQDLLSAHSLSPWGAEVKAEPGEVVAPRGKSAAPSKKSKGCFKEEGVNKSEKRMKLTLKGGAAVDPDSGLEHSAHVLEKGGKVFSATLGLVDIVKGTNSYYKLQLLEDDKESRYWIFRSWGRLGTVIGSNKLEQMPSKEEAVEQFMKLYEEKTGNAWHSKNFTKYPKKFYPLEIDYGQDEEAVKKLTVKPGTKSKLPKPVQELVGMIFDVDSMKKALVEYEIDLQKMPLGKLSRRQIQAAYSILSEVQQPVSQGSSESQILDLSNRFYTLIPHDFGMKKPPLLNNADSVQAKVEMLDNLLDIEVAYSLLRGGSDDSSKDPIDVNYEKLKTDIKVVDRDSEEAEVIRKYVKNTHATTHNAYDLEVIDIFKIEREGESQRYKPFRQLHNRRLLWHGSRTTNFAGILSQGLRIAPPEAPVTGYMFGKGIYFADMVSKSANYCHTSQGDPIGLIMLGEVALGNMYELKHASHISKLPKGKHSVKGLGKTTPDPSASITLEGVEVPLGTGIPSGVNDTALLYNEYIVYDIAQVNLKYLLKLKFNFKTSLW
methodNotes: PARP activation in cultured murine macrophages, whole-cell macrophage assay (peroxynitrite-induced)
protocolConditions: PARP activation in cultured murine macrophages
pIC50: −log10 of the molar value.
pIC50 values for the compounds below.

compound | targetOfAssay | pIC50
CCCCOC(=O)n1c2ccccc2c2[nH]c(=O)c3ccccc3c21 [Compound 109] | PARP (Mus musculus) | 4.00 to 5.00
CC(C)OC(=O)n1c2ccccc2c2[nH]c(=O)c3ccccc3c21 [Compound 108] | PARP (Mus musculus) | 4.00 to 5.00
CCOC(=O)n1c2ccccc2c2[nH]c(=O)c3ccccc3c21 [Compound 63] | PARP (Mus musculus) | 5.00 to 6.00
COC(=O)n1c2ccccc2c2[nH]c(=O)c3ccccc3c21 [Compound 61] | PARP (Mus musculus) | 4.00 to 5.00
CCCOC(=O)n1c2ccccc2c2[nH]c(=O)c3ccccc3c21 [Compound 107] | PARP (Mus musculus) | 4.00 to 5.00
